All figures here come from patent US9556159B2.

system-tested: Recombinant human renin (Homo sapiens)
assay-name: Inhibitory activity against human renin (fluorogenic peptide substrate)
Format: biochemical
particulars: 37° C. for 1 hour, read-out: IC50
assay-endpoint: IC50 (nM)

# chem-smiles, unit-tag, IC50
measured = [
    ("COC(=O)NCCCc1cc([C@@H](C)N(C(=O)[C@H]2CNCCO2)C2CC2)ccc1OC(C)C", "nM", 0.7),
    ("CNC(=O)NCCCn1nc([C@@H](C)N(C(=O)[C@H]2CNCCO2)C2CC2)c2ccc(C)cc21", "nM", 7.1),
    ("COCCCCn1cc([C@@H](C)N(C(=O)[C@H]2CNCCO2)C2CC2)c2ncc(C)nc21", "nM", 1.6),
    ("COC(=O)NCCCn1cc([C@@H](C)N(C(=O)[C@H]2CNCCO2)C2CC2)c2nccnc21", "nM", 1.7),
    ("CCc1ccnc2c([C@@H](C)N(C(=O)[C@H]3CNCCO3)C3CC3)cn(CCCCOC)c12", "nM", 0.9),
]

1. COC(=O)NCCOc1cc([C@@H](C)N(C(=O)[C@H]2CNCCO2)C2CC2)nc2c1CCCC2
2. COCc1ccc([C@@H](C)N(C(=O)[C@H]2CNCCO2)C2CC2)cc1CCCNC(=O)OC
3. COC(=O)NCCCc1nc([C@@H](C)N(C(=O)[C@H]2CNCCO2)C2CC2)ccc1OC
query: # ascending order, key=IC50 Put the labels in the requested order and write them down.
result: 2, 3, 1
(2: 0.8 nM, 3: 4.6 nM, 1: 8.2 nM)

* * *

system-tested: Recombinant human renin (Homo sapiens, UniProt P00797)
Sequence (P00797 67-406): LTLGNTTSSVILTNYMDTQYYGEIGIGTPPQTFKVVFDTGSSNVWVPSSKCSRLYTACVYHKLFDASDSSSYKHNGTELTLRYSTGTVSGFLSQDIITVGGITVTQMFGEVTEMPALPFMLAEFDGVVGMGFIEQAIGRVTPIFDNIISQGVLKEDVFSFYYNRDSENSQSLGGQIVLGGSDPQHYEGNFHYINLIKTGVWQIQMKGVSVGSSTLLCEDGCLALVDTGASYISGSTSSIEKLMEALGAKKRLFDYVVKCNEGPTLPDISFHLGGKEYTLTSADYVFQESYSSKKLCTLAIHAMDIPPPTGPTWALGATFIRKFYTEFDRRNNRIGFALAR
assay-name: Inhibitory activity against human renin (fluorogenic peptide substrate)
Format: biochemical
particulars: 50% inhibitory concentration (IC50) against human renin, 37° C. for 1 hour
pIC50: −log10 of the molar value.
assay-endpoint: pIC50

# compound, pIC50
measured = [
    ("COCCCc1cn(C)c2cnc([C@@H](C)N(C(=O)[C@H]3CNCCO3)C3CC3)cc12", 8.89),
    ("COC(=O)NCCCc1nc([C@H](C)N(C(=O)[C@H]2CNCCO2)C2CC2)sc1-c1ccc(F)cc1", 8.64),
    ("COC(=O)NCCCn1nc([C@@H](C)N(C(=O)[C@H]2CNCCO2)C2CC2)cc1-c1ccc(OC)nc1", 9.40),
    ("COC(=O)NCCCc1nc([C@@H](C)N(C(=O)[C@H]2CNCCO2)C2CC2)sc1-c1ccnn1C", 9.22),
    ("CNC(=O)[C@@H]1CNC[C@H](C(=O)N(C2CC2)[C@H](C)c2nn(CCCNC(=O)OC)c3nc(C)ccc23)O1", 8.92),
]

P. COC(=O)NCCCc1sc([C@@H](C)N(C(=O)[C@H]2CNCCO2)C2CC2)nc1-c1ccccc1
Q. COC(=O)NCCCn1cc([C@@H](C)N(C(=O)[C@H]2CNCCO2)C2CC2)nc1-c1cccc(F)c1
R. COC(=O)NCCCn1nc([C@@H](C)N(C(=O)[C@H]2CNCCO2)C2CC2)cc1-c1ccccc1
query: Which order do these items take when sorted by rising pIC50? List them. Respond with the label ranking, as requested.
result: P, Q, R
(P: 8.82, Q: 9.22, R: 9.70)

a. COC[C@@H]1CNC[C@H](C(=O)N(C2CC2)[C@@H](C)c2cnc(OC)c(CCCNC(=O)OC)c2)O1
b. COC(=O)NCCCc1cc(C(C)N(C(=O)[C@H]2CNCCO2)C2CC2)sc1-c1cccnc1N (stereo partly drawn)
query: Thinking about recorded pIC50 values, which is higher, a or b ? Please indicate the selected item by its label.
result: a

A. COC(=O)NCCCc1nc([C@@H](C)N(C(=O)[C@H]2CNCCO2)C2CC2)sc1-c1cnn(C)c1
B. COC(=O)NCCCc1cc([C@@H](C)N(C(=O)[C@H]2CNCCO2)C2CC2)cc2cccnc12
query: Between A and B , which one shows the smaller pIC50 number? Your answer should be the label attached to the chosen record.
result: A

1. COC(=O)NCCCc1cc(C(C)N(C(=O)[C@H]2CNCCO2)C2CC2)sc1C(C)CO (stereo partly drawn)
2. COC(=O)NCCCn1cc([C@@H](C)N(C(=O)[C@H]2CNCCO2)C2CC2)nc1-c1ccc(C(F)(F)F)cc1
query: Task for the reader: decide whether 1 or 2 has the larger pIC50. Choose, then provide that item's label.
result: 2
